Measured values drawn from patent US20250136577A1 for this set.

# experimental_system: MALT1-GS-Ub (6-His-hMALT-1 residues 339-715 fused to ubiquitin) (Homo sapiens (Human))
# Sequence (Q9UDY8 other isoform, or with tags, fused parts or gaps): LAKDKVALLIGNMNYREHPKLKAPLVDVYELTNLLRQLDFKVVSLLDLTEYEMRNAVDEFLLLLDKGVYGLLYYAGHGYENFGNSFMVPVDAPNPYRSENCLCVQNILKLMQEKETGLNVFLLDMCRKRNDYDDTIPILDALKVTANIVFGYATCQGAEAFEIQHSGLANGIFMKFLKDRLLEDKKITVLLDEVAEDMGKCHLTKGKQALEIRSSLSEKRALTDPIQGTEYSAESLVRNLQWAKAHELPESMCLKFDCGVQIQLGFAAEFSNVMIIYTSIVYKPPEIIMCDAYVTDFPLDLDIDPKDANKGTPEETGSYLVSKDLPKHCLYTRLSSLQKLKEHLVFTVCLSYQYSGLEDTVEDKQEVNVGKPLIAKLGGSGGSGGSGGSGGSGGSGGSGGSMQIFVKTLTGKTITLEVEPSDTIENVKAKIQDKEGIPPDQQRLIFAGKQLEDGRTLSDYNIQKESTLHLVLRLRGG
pIC50: −log10 of the molar value.
Could you label it criterion met if measured pIC50 is 6 or higher, and criterion not met otherwise?

Exam item: Is it the case that COc1cccc2c1CCCN2C(=O)Nc1cnc(-n2nccn2)c(Cl)c1 has pIC50 reaching or exceeding 6?
Marked response: criterion not met

Exam item: Is it the case that O=C(Nc1cnc(-n2nccn2)c(Cl)c1)N1CCCc2c(C3CC3)cncc21 has pIC50 reaching or exceeding 6?
Marked response: criterion not met

Exam item: Is it the case that CN1CCN(C(=O)Nc2cnc(-n3nccn3)c(Cl)c2)c2cccc(Br)c21 has pIC50 reaching or exceeding 6?
Marked response: criterion not met

Exam item: Is it the case that O=C(Nc1cnc(-n2nccn2)c(Cl)c1)N1CC2CCCCN2c2c(Br)cncc21 (centres unmarked) has pIC50 reaching or exceeding 6?
Marked response: criterion not met

Exam item: Is it the case that O=C(Nc1cnc(-n2nccn2)c(Cl)c1)N1CC2(CCOC2)Oc2c(Br)cncc21 (centres unmarked) has pIC50 reaching or exceeding 6?
Marked response: criterion not met

Exam item: Is it the case that O=C(Nc1cnc(-n2nccn2)c(Cl)c1)N1CCN(C2CCOCC2)c2c(Br)cncc21 has pIC50 reaching or exceeding 6?
Marked response: criterion not met

Exam item: Is it the case that N#Cc1cccc2c1CCCN2C(=O)Nc1cnc(-n2nccn2)c(Cl)c1 has pIC50 reaching or exceeding 6?
Marked response: criterion not met

Exam item: Is it the case that O=C(Nc1cnc(-n2nccn2)c(C(F)(F)F)c1)N1CCOc2c(Br)cccc21 has pIC50 reaching or exceeding 6?
Marked response: criterion not met

Exam item: Is it the case that O=C(Nc1cnc(-n2nccn2)c(Cl)c1)N1CC(C(F)(F)F)Oc2c(Br)cncc21 (single isomer, unassigned) [Example 40] has pIC50 reaching or exceeding 6?
Marked response: criterion met

Exam item: Is it the case that O=C(Nc1cnc(-n2nccn2)c(Cl)c1)N1CCCc2c(Br)cncc21 has pIC50 reaching or exceeding 6?
Marked response: criterion met

Exam item: Is it the case that C[C@@H]1CN(C(=O)Nc2cnc(-n3nccn3)c(C(F)(F)F)c2)c2cccc(Br)c2[C@@H]1C (relative stereo) has pIC50 reaching or exceeding 6?
Marked response: criterion not met

Exam item: Is it the case that O=C(Nc1cnc(-n2nccn2)c(C(F)(F)F)c1)N1CCCc2c(-c3cccnc3)cccc21 has pIC50 reaching or exceeding 6?
Marked response: criterion not met
